test system: CCRIS mutagenicity, Ames/micronucleus/aberration tests; experiment: CCRIS mutagenicity studies; settings: Test System: MOUSE LYMPHOMA; Strain/Indicator: L5178Y (TK+/TK-); Metabolic Activation: NONE; Method: SUSPENSION/PLATE
Active and inactive are the calls of the source. No rule for the calls is given here.
Measurement Type: mutagenic call

As a guide, the following entries are already answered.
Request: Name the recorded mutagenic call for `CN` .
Response: active; positive

Request: Name the recorded mutagenic call for `ClC(Br)Br` .
Response: active; positive

Request: Name the recorded mutagenic call for `C=O` .
Response: active; positive

Request: Name the recorded mutagenic call for BrCC(Br)C1CCC(Br)C(Br)C1 (configuration not stated) .
Response: active; positive

Request: Name the recorded mutagenic call for `CC(C)CCCCCCOC(=O)CCCCC(=O)OCCCCCCC(C)C` .
Response: inactive; negative

Request: Name the recorded mutagenic call for `O=C(O)c1cc(O)c2c(c1)C(=O)c1cccc(O)c1C2=O` .
Response: inactive; negative

Request: Name the recorded mutagenic call for `ClCC(Cl)CCl` .
Response: inactive; negative

Request: Name the recorded mutagenic call for CC1CO1 (configuration not stated) .
Response: active; positive

# ---- query compound ----
Request: Name the recorded mutagenic call for `NC(N)=S` .
Response: inactive; negative

---

test system: CCRIS mutagenicity, Ames/micronucleus/aberration tests; assay: CCRIS mutagenicity studies; details: Test System: AMES SALMONELLA TYPHIMURIUM; Strain/Indicator: TA98; Metabolic Activation: GUINEA PIG, LIVER, S-9, PCB; Method: PREINCUBATION
Calls of active or inactive are those of the source. No rule for the calls is given here.
Measurement Type: mutagenic call

As a guide, the following entries are already answered.
Request: Name the recorded mutagenic call for `O=C(O)c1ccccc1O` .
Response: inactive; negative

Request: Name the recorded mutagenic call for `CC(=O)Nc1ccccc1` .
Response: inactive; negative

Request: Name the recorded mutagenic call for `CCOc1ccc(NC(C)=O)cc1` .
Response: inactive; negative

Request: Name the recorded mutagenic call for `Cc1cc(=O)n(-c2ccccc2)n1C` .
Response: inactive; negative

# ---- query molecule ----
Request: Name the recorded mutagenic call for `COc1ccc2cc([C@H](C)C(=O)O)ccc2c1` .
Response: inactive; negative

---

system: CCRIS mutagenicity, Ames/micronucleus/aberration tests; assay: CCRIS mutagenicity studies; details: Test System: AMES SALMONELLA TYPHIMURIUM; Strain/Indicator: TA100; Metabolic Activation: RAT, LIVER, S-9, AROCLOR 1254
The source made the active and inactive calls. How the calls were made is not given here.
Hi there, use one of these labels in your reply, thanks! active, inactive

For orientation, consider the following solved cases.
Request: // return assay outcome for `O=[N+]([O-])c1ccc2c(c1)CCc1cc3c(cc1-2)CCc1ccccc1-3`
Response: active

Request: // return assay outcome for `COP(=S)(OC)Oc1nc(Cl)c(Cl)cc1Cl`
Response: inactive

Request: // return assay outcome for `COP(=O)(OC)O/C(=C\Cl)c1cc(Cl)c(Cl)cc1Cl`
Response: inactive

Now take the following compound into account.
Request: // return assay outcome for `BrCCBr`
Response: active

---

tested on: CCRIS mutagenicity, Ames/micronucleus/aberration tests; assay: CCRIS mutagenicity studies; settings: Test System: AMES SALMONELLA TYPHIMURIUM; Strain/Indicator: TA98; Metabolic Activation: NONE; Method: STANDARD PLATE
Active and inactive are the calls of the source. No rule for the calls is given here.
Hi there, use one of these labels in your reply, thanks! active, inactive

Request: // return assay outcome for `COc1cc([N+](=O)[O-])ccc1N`
Response: active

---

system: CCRIS mutagenicity, Ames/micronucleus/aberration tests; assay: CCRIS mutagenicity studies; conditions: Test System: AMES SALMONELLA TYPHIMURIUM; Strain/Indicator: TA1537; Metabolic Activation: RAT, LIVER, S-9, AROCLOR 1254; Method: STANDARD PLATE
Calls of active or inactive are those of the source. The rule behind the calls is not given here.
Hi there, use one of these labels in your reply, thanks! 1.0 = active, 0.0 = inactive

For orientation, consider the following solved cases.
Request: // return assay outcome for CN1Cc2c(N)cccc2C(c2ccccc2)C1 (configuration not stated)
Response: 0.0

Request: // return assay outcome for `Fc1c(F)c(F)c(Cl)c(F)c1F`
Response: 0.0

Request: // return assay outcome for `Cc1ccc(N=Nc2ccc(N(CCO)CCO)cc2)cc1`
Response: 0.0

***
Request: // return assay outcome for `CC(=O)Oc1ccccc1C(=O)Oc1ccccc1C(=O)O`
Response: 0.0

Request: // return assay outcome for `N#CC1=C(C#N)SCCS1`
Response: 0.0

Request: // return assay outcome for `O=C(/C=N/O)Nc1ccccc1`
Response: 0.0

Request: // return assay outcome for `Nc1ccc(O)c2c1C(=O)c1ccccc1C2=O`
Response: 1.0

---

test system: CCRIS mutagenicity, Ames/micronucleus/aberration tests; assay: CCRIS mutagenicity studies; settings: Test System: AMES SALMONELLA TYPHIMURIUM; Strain/Indicator: TA1535; Metabolic Activation: RAT LIVER S-9, AROCLOR 1254; Method: STANDARD PLATE
The source made the active and inactive calls. How the calls were made is not given here.
Measurement Type: mutagenic call

Request: Param readout= mutagenic call; system= CCRIS mutagenicity, Ames/micronucleus/aberration tests; entry= `[Ag][I]` ; returns value.
Response: inactive; negative

Request: Param readout= mutagenic call; system= CCRIS mutagenicity, Ames/micronucleus/aberration tests; entry= `COc1cc(CNC(=O)CCCC/C=C/C(C)C)ccc1O` ; returns value.
Response: inactive; negative

Request: Param readout= mutagenic call; system= CCRIS mutagenicity, Ames/micronucleus/aberration tests; entry= `CC(C)[C@]12CC(=O)[C@H](C)[C@H]1C2` ; returns value.
Response: inactive; negative

Request: Param readout= mutagenic call; system= CCRIS mutagenicity, Ames/micronucleus/aberration tests; entry= `Cc1ccc(N)cc1O` ; returns value.
Response: inactive; negative

---

Tested on: CCRIS mutagenicity, Ames/micronucleus/aberration tests
Test: CCRIS mutagenicity studies
Conditions: Test System: AMES SALMONELLA TYPHIMURIUM; Strain/Indicator: TA1537; Metabolic Activation: NONE; Method: STANDARD PLATE
Text: The CCRIS database contains chemical records with carcinogenicity, mutagenicity, tumor promotion, and tumor inhibition test results. It was developed by the National Cancer Institute (NCI). Data are derived from studies cited in primary journals, current awareness tools, NCI reports, and other sources. Test results have been reviewed by experts in carcinogenesis and mutagenesis. CCRIS provides historical information from the years 1985 - 2011. It is no longer updated. […]
Activity calls are given as the source filed them. No rule for the calls is given here.
Hi there, use one of these labels in your reply, thanks! yes (1) (active), no (0) (inactive)

Request: // return assay outcome for `N#Cc1cc(I)c(O)c([N+](=O)[O-])c1`
Response: no (0)

Request: // return assay outcome for `O=C1c2cccc(S(=O)(=O)O)c2C(=O)c2cccc([N+](=O)[O-])c21`
Response: no (0)

Request: // return assay outcome for Cc1cc(C(O)c2ncc([N+](=O)[O-])n2C)c(O)c(C(C)(C)C)c1 (stereo unspecified)
Response: no (0)

Request: // return assay outcome for `CCCCCCCCCCCCS`
Response: no (0)

Request: // return assay outcome for `CCN(CC)c1ccc(N=Nc2ccc([N+](=O)[O-])cc2C#N)cc1`
Response: yes (1)

Now take the following compound into account.
Request: // return assay outcome for `Cc1cc(Cl)ccc1OCC(=O)O`
Response: no (0)

---

test system: CCRIS mutagenicity, Ames/micronucleus/aberration tests; assay: CCRIS mutagenicity studies; conditions: Test System: Ames Salmonella typhimurium; Strain/Indicator: TA102; Metabolic Activation: Rat, Liver, S-9, Aroclor 1254 in 0.154 M KCl; Method: Preincubation
Activity calls are given as the source filed them. No rule for the calls is given here.
Measurement Type: mutagenic call

Request: Name the recorded mutagenic call for `O=C(O[C@@H]1Cc2c(O)cc(O)cc2O[C@H]1c1cc(O)c(O)c(O)c1)c1cc(O)c(O)c(O)c1` .
Response: inactive; negative

Request: Name the recorded mutagenic call for `Oc1ccc(/C=C/c2cc(O)cc(O)c2)cc1` .
Response: inactive; negative

---

Test system: CCRIS mutagenicity, Ames/micronucleus/aberration tests
Assay: CCRIS mutagenicity studies
Details: End Point: IN VITRO MICRONUCLEUS; Test System: CHL/IU CELLS; Metabolic Activation: NONE
Description: The CCRIS database contains chemical records with carcinogenicity, mutagenicity, tumor promotion, and tumor inhibition test results. It was developed by the National Cancer Institute (NCI). Data are derived from studies cited in primary journals, current awareness tools, NCI reports, and other sources. Test results have been reviewed by experts in carcinogenesis and mutagenesis. CCRIS provides historical information from the years 1985 - 2011. It is no longer updated. […]
Calls of active or inactive are those of the source. How the calls were made is not given here.
Hi there, use one of these labels in your reply, thanks! Y (active), N (inactive)

For orientation, consider the following solved cases.
Request: // return assay outcome for `[Cl][Cr]([Cl])[Cl]`
Response: Y

Request: // return assay outcome for `ClC(Cl)=C(Cl)Cl`
Response: N

***
Request: // return assay outcome for `Cc1cc([N+](=O)[O-])ccc1N`
Response: N

Request: // return assay outcome for COc1ccc2c(c1)c(CC(=O)OC(C)c1ccccc1)c(C)n2C(=O)c1ccc(Cl)cc1 (configuration not stated)
Response: Y

Request: // return assay outcome for `Nc1cccc(Cl)c1`
Response: Y

Request: // return assay outcome for `COS(C)(=O)=O`
Response: Y

Request: // return assay outcome for `[Cl][Hg][Cl]`
Response: N
